Here the recorded Fold Induction, 13B3 Assay, 33 uM is given for each entry.
molecular target: GAL4 DBD-CfEcR(DEF)/VP16AD-MmRXRE (Choristoneura fumiferana, UniProt O77240); experiment: 13B3 Assay (CHO stable cell line, luciferase reporter); settings: 33 uM ligand; RLU ligand treated / RLU DMSO treated cells; average of two wells

INSERT INTO results (molecule, measurement_type, val) VALUES
  ('CCc1c(C(=O)NN(C(=O)c2ccccc2OC)C(C)(C)C)ccc2c1OCOC2 [RG-115065]', 'Fold Induction, 13B3 Assay, 33 uM', 880),
  ('Cc1cc(C)cc(C(=O)N(NC(=O)c2ccc3c(c2)CCO3)C(C)(C)C)c1 [RG-101531]', 'Fold Induction, 13B3 Assay, 33 uM', 274),
  ('COc1ccc(Cl)cc1C(=O)N(NC(=O)c1ccc2c(c1C)CCCO2)C(C)(C)C [RG-115551]', 'Fold Induction, 13B3 Assay, 33 uM', 290),
  ('Cc1c(C(=O)NN(C(=O)c2ccc(F)cc2)C(C)(C)C)ccc2c1OCO2 [RG-100448]', 'Fold Induction, 13B3 Assay, 33 uM', 2),
  ('CCc1c(OC)cccc1C(=O)NN(C(=O)c1cc(OC)c(OC)c(OC)c1)C(C)(C)C [RG-115329]', 'Fold Induction, 13B3 Assay, 33 uM', 5644),
  ('CCc1ccc(C(=O)NN(C(=O)c2cc(C)c(C)c(Cl)c2)C(C)(C)C)cc1 [RG-101863]', 'Fold Induction, 13B3 Assay, 33 uM', 207),
  ('COc1cccc(C(=O)NN(C(=O)c2cc(C)ccc2[N+](=O)[O-])C(C)(C)C)c1C [RG-100569]', 'Fold Induction, 13B3 Assay, 33 uM', 329),
  ('COc1cccc(C(=O)NN(C(=O)c2cccc(C)c2)C(C)(C)C)c1C [RG-100694]', 'Fold Induction, 13B3 Assay, 33 uM', 2078);

Form field: Fold Induction, 13B3 Assay, 33 uM recorded for Cc1c(C(=O)NN(C(=O)c2cc(Cl)cc(Cl)c2)C(C)(C)C)cccc1N(C)C [RG-101316] with GAL4 DBD-CfEcR(DEF)/VP16AD-MmRXRE (Choristoneura fumiferana, UniProt O77240) (enter value)
1280

Now this one: CCc1c(C(=O)NN(C(=O)c2cc(OC)c(C)c(OC)c2)C(C)(C)C)ccc2c1OCCO2 [RG-115130]
511

Now this one: CCCCC(CC)N(NC(=O)c1cccc(C)c1C)C(=O)c1ccccc1 (racemic) [RG-103361]
2262

Now this one: Cc1cc(C)cc(C(=O)N(NC(=O)c2cccc(I)c2C)C(C)(C)C)c1 [RG-101734]
442

Now this one: COc1ccccc1C(=O)N(NC(=O)c1ccc2c(c1C)OCOC2)C(C)(C)C [RG-100216]
8037

* * *

test: Aqueous equilibrium solubility in pH 7.4 buffer; conditions: pH 7.4 aqueous buffer, room temperature, equilibrium
measurement-type: Solubility pH 7.4

INSERT INTO results (compound, val) VALUES
  ('CC(O)c1ccc(C(=O)NN(C(=O)c2cc(CO)cc(CO)c2)C(C)(C)C)cc1 (stereo not drawn)', '≧1.0 mg/mL'),
  ('CCc1c(OC)cccc1C(=O)NN(C(=O)c1ccccc1S(=O)(=O)O)C(C)(C)C', '≧1.0 mg/mL'),
  ('CC(=O)c1ccc(C(=O)NN(C(=O)c2cc(C(=O)O)cc(C(=O)O)c2)C(C)(C)C)cc1', '≧1.0 mg/mL');

* * *

target: GAL4 DBD-CfEcR(DEF)/VP16AD-MmRXRE (Choristoneura fumiferana, UniProt O77240); assay: 13B3 Assay (CHO stable cell line, luciferase reporter); settings: 33 uM ligand; RLU ligand treated / RLU DMSO treated cells; average of two wells
Here the recorded Fold Induction, 13B3 Assay, 33 uM is given for each entry.
Field format: numeric only.

Here's what some known entries look like.
INSERT INTO measurements (query_smiles, val) VALUES
  ('Cc1cc(C)cc(C(=O)N(NC(=O)c2cccc(OC(F)(F)F)c2C)C(C)(C)C)c1', 170),
  ('COc1cc(C)cc(C(=O)N(NC(=O)c2cccc(OC)c2C)C(C)(C)C)c1', 682),
  ('Cc1c(C(=O)NN(C(=O)c2ccc(F)cc2)C(C)(C)C)ccc2c1CCCO2', 769),
  ('CCc1c(C(=O)NN(C(=O)c2ccccc2OC)C(C)(C)C)ccc2c1OCO2', 434),
  ('COc1cc(F)ccc1C(=O)N(NC(=O)c1cccc(OC)c1C)C(C)(C)C', 1211),
  ('COc1cc(C(=O)NN(C(=O)c2cc(C)cc(C)c2)C(C)(C)C)ccc1C', 1015),
  ('CCc1c(OC)cccc1C(=O)NN(C(=O)c1cccc(F)c1F)C(C)(C)C', 10058),
  ('CC(C)(C)N(NC(=O)c1ccc2c(c1)OCO2)C(=O)c1ccc(F)cc1Cl', 701);

Which Fold Induction, 13B3 Assay, 33 uM reading was recorded for the molecule CCc1c(OC)cccc1C(=O)NN(C(=O)c1cc(C)nc(Cl)c1)C(C)(C)C ?
1191

Now this one: CCc1c(OC)cccc1C(=O)NN(C(=O)c1cc(C)cc(C)c1)C(C)(C)C=NCCO
98

Now this one: COc1cccc(C(=O)NN(C(=O)c2cc(Cl)cc(Br)c2)C(C)(C)C)c1C
326

* * *

molecular target: GAL4 DBD (1-147)-CfEcR(DEF)/VP16AD-βRXREF-LmUSPEF (Choristoneura fumiferana, UniProt O77240); test: cell-based; conditions: 3.3 uM ligand; RLU ligand treated / RLU DMSO treated cells; average of two wells
Would you mind classing the entries by Fold Induction, 27-63 Assay, 3.3 uM? Ranges: group 1 (below 800), group 2 (800 to below 2000), group 3 (2000 or more)

INSERT INTO measurements (molecule, discrete_label) VALUES
  ('COc1cccc(C(=O)N(NC(=O)c2ccc3c(c2C)OCCO3)C(C)(C)C)c1', 'group 2'),
  ('Cc1cc(C)cc(C(=O)N(NC(=O)c2cccc(OC(F)(F)F)c2C)C(C)(C)C)c1', 'group 2'),
  ('COc1cccc(C(=O)NN(C(=O)c2ccc(C(F)(F)F)nc2OC)C(C)(C)C)c1C', 'group 2'),
  ('CCc1c(C(=O)NN(C(=O)c2cc(OC)c(C)c(OC)c2)C(C)(C)C)ccc2c1OCCO2', 'group 3');

Please indicate the class for CCc1c(C(=O)NN(C(=O)c2ccc(F)cc2)C(C)(C)C)ccc2c1OCOC2 based on its Fold Induction, 27-63 Assay, 3.3 uM.
group 1

Now this one: CCc1ccc(C(=O)NN(C(=O)c2ccccc2[N+](=O)[O-])C(C)(C)C)cc1
group 2

Now this one: CCc1c(C(=O)NN(C(=O)c2ccc(F)c(F)c2F)C(C)(C)C)ccc2c1OCCO2
group 2

Now this one: COc1cc(C(=O)N(NC(=O)c2cccc(OC)c2C)C(C)(C)C)c(OC)nn1
group 1

Now this one: CCc1c(OC)cccc1C(=O)NN(C(=O)c1ccc2c(c1)OCO2)C(C)(C)C
group 1

Now this one: COc1cccc(C(=O)NN(C(=O)c2ccnnc2)C(C)(C)C)c1C
group 1

Now this one: COc1cccc(C(=O)NN(C(=O)c2ccc(C(F)(F)F)n(C)c2=O)C(C)(C)C)c1C
group 1

Now this one: CCc1c(C(=O)NN(C(=O)c2ccc(Cl)cc2F)C(C)(C)C)ccc2c1OCCO2
group 2

Now this one: CCc1c(C(=O)NN(C(=O)c2ccccc2)C(C)(C)C)ccc2c1OCOC2
group 1

Now this one: COc1cccc(C(=O)NN(C(=O)c2cccc(C)c2)C(C)(C)C)c1C
group 2

Now this one: CCc1c(C(=O)NN(C(=O)c2cc(Cl)nc(Cl)c2)C(C)(C)C)ccc2c1OCCO2
group 2

Now this one: COc1cccc(C(=O)NN(C(=O)c2cc(Cl)cc(Br)c2)C(C)(C)C)c1C
group 3

Now this one: CCCC(N(NC(=O)c1cccc(OC)c1C)C(=O)c1cc(C)cc(C)c1)C(C)(C)C (centres unmarked)
group 3

Now this one: COc1cccc(C(=O)NN(C(=O)c2cc(C)cc(Br)c2)C(C)(C)C)c1C
group 3

Now this one: CC(=O)c1cccc(C(=O)NN(C(=O)c2cc(C)cc(C)c2)C(C)(C)C)c1C
group 3

Now this one: CCc1c(OC)cccc1C(=O)NN(C(=O)c1cc(Cl)ccc1OC)C(C)(C)C
group 2

Now this one: Cc1cc(C)cc(C(=O)N(NC(=O)c2ccc3c(c2)COCO3)C(C)(C)C)c1
group 1

Now this one: COc1cc(C)cc(C(=O)N(NC(=O)c2cccc(OC)c2C)C(C)(C)C)c1
group 3

Now this one: CCc1ccc(C(=O)NN(C(=O)c2cccnc2OC)C(c2ccccc2)C(C)(C)C)cc1 (centres unmarked)
group 2

Data provenance is patent US9102648B1.
